assay: Retention time of the compound; format: ADME
Starred links: 1 amine or outer side, 2 acyl side, 3 side chain; linkers in the order of their positions; H or OH if unused. Non-standard residues stand in square brackets, D forms with d. Residues, ends and D or L forms follow the SMILES beside them. *: point of attachment. Phe(4-NH(5-NH2triazol-3-yl)) = Nc1nc(Nc2ccc(C[C@H](N)C(=O)O)cc2)n[nH]1; dNva(5-oxo-5-(4-MeOPh)) = COc1ccc(C(=O)CC[C@@H](N)C(=O)O)cc1; X1 = Nc1nc(Nc2ccc(C[C@@H](N[*:1])C(=O)[*:2])cc2)n[nH]1; Triazol3yl(1,2,4-5-NH2) = Nc1nc(*)n[nH]1; dPhe(4-Cl) = N[C@H](Cc1ccc(Cl)cc1)C(=O)O; d2Nal = N[C@H](Cc1ccc2ccccc2c1)C(=O)O; Lys(iPr) = CC(C)NCCCC[C@H](N)C(=O)O; d3Pal = N[C@H](Cc1cccnc1)C(=O)O; dOrn = NCCC[C@@H](N)C(=O)O; Orn = NCCC[C@H](N)C(=O)O
readoutLabel: RT (min)
Just the number in min, nothing appended.

{"molecule": "CC(=O)N[C@H](Cc1ccc2ccccc2c1)C(=O)N[C@H](Cc1ccc(Cl)cc1)C(=O)N[C@H](Cc1cccnc1)C(=O)N[C@@H](CO)C(=O)N[C@@H](Cc1ccc(Nc2n[nH]c(N)n2)cc1)C(=O)N[C@H](Cc1ccc(Nc2n[nH]c(N)n2)cc1)C(=O)N[C@@H](CC(C)C)C(=O)N[C@@H](CCCCNC(C)C)C(=O)N1CCC[C@H]1C(=O)NCC(N)=O (Ac-[d2Nal][dPhe(4-Cl)][d3Pal]S[Phe(4-NH(5-NH2triazol-3-yl))][X1]L[Lys(iPr)]PG-NH2)", "unitName": "min", "assayValue": 8.45}
{"molecule": "COc1ccc(C(=O)CC[C@@H](NC(=O)[C@H](CCCN=C(N)N)NC(=O)[C@H](CO)NC(=O)[C@@H](Cc2cccnc2)NC(=O)[C@@H](Cc2ccc(Cl)cc2)NC(=O)[C@@H](Cc2ccc3ccccc3c2)NC(C)=O)C(=O)N[C@@H](CC(C)C)C(=O)N[C@@H](CCCN=C(N)N)C(=O)N2CCC[C@H]2C(=O)N[C@H](C)C(N)=O)cc1 (Ac-[d2Nal][dPhe(4-Cl)][d3Pal]SR[dNva(5-oxo-5-(4-MeOPh))]LRP[dA]-NH2)", "unitName": "min", "assayValue": 22.8}

Consider the record given below.
Please look up its RT: CC(=O)N[C@H](Cc1ccc2ccccc2c1)C(=O)N[C@H](Cc1ccc(Cl)cc1)C(=O)N[C@H](Cc1cccnc1)C(=O)N[C@@H](CO)C(=O)N[C@@H](CCCNc1n[nH]c(N)n1)C(=O)N[C@H](CCCNc1n[nH]c(N)n1)C(=O)N[C@@H](CC(C)C)C(=O)N[C@@H](CCCCNC(C)C)C(=O)N1CCC[C@H]1C(=O)N[C@H](C)C(N)=O (Ac-[d2Nal][dPhe(4-Cl)][d3Pal]S[Orn](Triazol3yl(1,2,4-5-NH2))[dOrn](Triazol3yl(1,2,4-5-NH2))L[Lys(iPr)]P[dA]-NH2)
6.2
